- Read-out: CD40, CD40 (gene 958)
- procedureSummary: BSK_SAg_CD40: BioMAP Diversity Plus: SAg Assay for CD40 Biomarker Activity (AID 2283088)
- measurementParameters: primary human HUVEC with PBMC; actives raise or lower the signal
Activity calls are given as the source filed them. Rule for the calls: active = hit-call score of the fitted dose curve at least 0.9, where 1 is the maximum; inactive = score below 0.9.
Entry note: the call must match one of T for active, F for inactive

Below, 5 compounds whose answers are already recorded.
Problem: Which outcome was assigned to CC(C)(C)c1cc([N+](=O)[O-])cc(C(C)(C)C)c1O in this test?
Solution: T

Problem: Ok, now CC1(C)[C@H](C(=O)O[C@H](C#N)c2cccc(Oc3ccccc3)c2)[C@@H]1/C=C(\Cl)C(F)(F)F
Solution: T

Problem: Ok, now c1ccc(-c2cccc(-c3ccccc3)c2)cc1
Solution: T

Problem: Ok, now CC(C)=CC1C(C(=O)OCc2cccc(Oc3ccccc3)c2)C1(C)C (stereo unspecified)
Solution: F

Problem: Ok, now Oc1ccc(Cc2ccc(O)cc2)cc1
Solution: F

Next:
Problem: Which outcome was assigned to Cc1cccc(OP(=O)(Oc2cccc(C)c2)Oc2cccc(C)c2)c1 in this test?
Solution: F

====

- procedureSummary: ATG_M_19_TRANS: Attagene TRANS-FACTORIAL HepG2 Assay for M19 Transcription Factor (Internal Marker) (AID 2282974)
- measurementParameters: HepG2 Attagene TRANS-FACTORIAL M19 internal marker reporter
Results filed as inconclusive are left out. The source made the active and inactive calls. Rule for the calls: active = hit-call score of the fitted dose curve at least 0.9, where 1 is the maximum; inconclusive = response in the unintended direction; inactive = score below 0.9.
Entry note: the call must match one of y for active, n for inactive

Below, 3 compounds whose answers are already recorded.
Problem: Which outcome was assigned to CC(C)C(C)(N)C#N (centres undefined) in this test?
Solution: n

Problem: Ok, now CS(=O)(=O)c1ccc(C(=O)C2C(=O)CCCC2=O)c(Cl)c1COCC(F)(F)F
Solution: n

Problem: Ok, now N#CCCC(Br)(C#N)CBr (centres undefined)
Solution: n

Next:
Problem: Which outcome was assigned to CC(C)=CC1C(C(=O)OCc2cccc(Oc3ccccc3)c2)C1(C)C (centres undefined) in this test?
Solution: n

Problem: Ok, now Brc1c(Br)c(Br)c(Oc2c(Br)c(Br)c(Br)c(Br)c2Br)c(Br)c1Br
Solution: n

Problem: Ok, now O=C(CBr)c1ccc(O)cc1
Solution: n

Problem: Ok, now CCOP(=O)(OCC)OC(=CCl)c1ccc(Cl)cc1Cl
Solution: n

Problem: Ok, now O=C1c2ccccc2C(=O)C1C(=O)C(c1ccccc1)c1ccc(Cl)cc1 (centres undefined)
Solution: y

Problem: Ok, now CC(C)(C)c1ccccc1O
Solution: n

Problem: Ok, now CCCCCCCCCCCCCCC(Br)C(=O)O (centres undefined)
Solution: n

Problem: Ok, now O=c1oc2ccccc2c(O)c1C(CC(O)c1ccc(-c2ccc(Br)cc2)cc1)c1ccccc1 (centres undefined)
Solution: n

Problem: Ok, now N#Cc1cccnc1
Solution: n

Problem: Ok, now Cc1ccc(OP(=O)(Oc2ccc(C)cc2C)Oc2ccc(C)cc2C)c(C)c1
Solution: n

Problem: Ok, now O=C(CCl)NCO
Solution: n

====

- procedureSummary: BSK_LPS_PGE2: BioMAP Diversity Plus: LPS Assay for Prostaglandin E2 (PGE2) Biomarker Activity (AID 2283082)
- measurementParameters: primary human HUVEC with PBMC; actives raise or lower the signal
The source made the active and inactive calls. The calls were made as follows: active = hit-call score of the fitted dose curve at least 0.9, where 1 is the maximum; inactive = score below 0.9.
Entry note: the call must match one of True = active, False = inactive

Problem: Which outcome was assigned to OCCCCO in this test?
Solution: False

Problem: Ok, now [Cl][Sn]([c]1ccccc1)([c]1ccccc1)[c]1ccccc1
Solution: False

Problem: Ok, now Cc1cc(C)cc(C)c1
Solution: False

Problem: Ok, now N#Cc1cccnc1
Solution: False

Problem: Ok, now OC(Cc1ccccc1Cl)(Cn1cncn1)C1(Cl)CC1 (configuration not stated)
Solution: True

Problem: Ok, now OC(Cc1ccccc1Cl)(Cn1[nH]cnc1=S)C1(Cl)CC1 (configuration not stated)
Solution: True

Problem: Ok, now CCOC(=O)CCN(SN(C)C(=O)Oc1cccc2c1OC(C)(C)C2)C(C)C
Solution: False

Problem: Ok, now N#CCCC(Br)(C#N)CBr (configuration not stated)
Solution: False

Problem: Ok, now O=[N+]([O-])c1cccc2ccccc12
Solution: False

Problem: Ok, now Cc1cc(Cl)ccc1OC(C)C(=O)O (configuration not stated)
Solution: False

Next:
Problem: Which outcome was assigned to Cc1cc(Cl)ccc1N in this test?
Solution: False

Problem: Ok, now CC(C)=CC1C(C(=O)OCc2cccc(Oc3ccccc3)c2)C1(C)C (configuration not stated)
Solution: False

Problem: Ok, now CC(C)(C)c1cc([N+](=O)[O-])cc(C(C)(C)C)c1O
Solution: False

Problem: Ok, now C[C@]12CC[C@@H](O)C[C@@H]1CC[C@@H]1[C@@H]2CC[C@]2(C)C(=O)CC[C@@H]12
Solution: False

Problem: Ok, now COCC(=O)N(c1c(C)cccc1C)[C@H](C)C(=O)OC
Solution: False

Problem: Ok, now C=CC(Cl)CCl (configuration not stated)
Solution: False
